Quick reference for melting point among some compounds
Counter-ions that a name gives are not always drawn.

>  <compound>
O=C(/C=C/c1cc(Nc2ccc(OCc3ccc(F)cc3)cc2)c2ccccc2n1)c1ccc(F)cc1 (as salt: salt)

>  <melting point>
254 to 255 °C

$$$$
>  <compound>
O=C(/C=C/c1cc(Nc2ccc(OCc3ccccc3F)cc2)c2ccccc2n1)c1ccc(F)cc1 (as salt: salt)

>  <melting point>
207 to 208 °C

$$$$
>  <compound>
O=C(/C=C/c1cc(Nc2ccc(OCc3ccccc3)cc2)c2ccccc2n1)c1ccc(F)cc1 (as salt: salt)

>  <melting point>
162 to 163 °C

$$$$
>  <compound>
COc1cccc(COc2ccc(Nc3cc(/C=C/C(=O)c4ccc(F)cc4)nc4ccccc34)cc2)c1 (as salt: salt)

>  <melting point>
165 to 166 °C

$$$$
>  <compound>
COc1ccc(C(=O)/C=C/c2cc(Nc3ccc(OCc4ccccc4)cc3)c3ccccc3n2)cc1 (as salt: salt)

>  <melting point>
200 to 201 °C

$$$$
>  <compound>
O=C(/C=C/c1cc(Nc2ccc(OCc3ccccc3Cl)cc2)c2ccccc2n1)c1ccc(F)cc1 (as salt: salt)

>  <melting point>
192 to 193 °C

$$$$
>  <compound>
COc1ccc(C(=O)/C=C/c2cc(Nc3ccc(OCc4ccc(F)cc4)cc3)c3ccccc3n2)cc1 (as salt: salt)

>  <melting point>
176 to 177 °C

$$$$
>  <compound>
COc1ccc(C(=O)/C=C/c2cc(Nc3ccc(OCc4ccccc4F)cc3)c3ccccc3n2)cc1 (as salt: salt)

>  <melting point>
175 to 176 °C

$$$$
>  <compound>
COc1ccc(C(=O)/C=C/c2cc(Nc3ccc(OCc4ccc(Cl)cc4)cc3)c3ccccc3n2)cc1 (as salt: salt)

>  <melting point>
142 to 143 °C

$$$$
>  <compound>
COc1ccc(C(=O)/C=C/c2cc(Nc3ccc(OCc4cccc(Cl)c4)cc3)c3ccccc3n2)cc1 (as salt: salt)

>  <melting point>
132 to 133 °C

$$$$
>  <compound>
O=C(/C=C/c1cc(Nc2ccc(OCc3cccc(Cl)c3)cc2)c2ccccc2n1)c1ccc(F)cc1 (as salt: salt)

>  <melting point>
172 to 173 °C

$$$$
>  <compound>
COc1ccc(C(=O)/C=C/c2cc(Nc3ccc(OCc4cccc(F)c4)cc3)c3ccccc3n2)cc1 (as salt: salt)

>  <melting point>
171 to 172 °C

$$$$
>  <compound>
COc1ccc(C(=O)/C=C/c2cc(Nc3ccc(OCc4ccccc4Cl)cc3)c3ccccc3n2)cc1 (as salt: salt)

>  <melting point>
160 to 161 °C

$$$$
>  <compound>
O=C(/C=C/c1cc(Nc2ccc(OCc3ccc(Cl)cc3)cc2)c2ccccc2n1)c1ccc(F)cc1 (as salt: salt)

>  <melting point>
179 to 180 °C

$$$$
>  <compound>
O=C(/C=C/c1cc(Nc2ccc(OCc3cccc(F)c3)cc2)c2ccccc2n1)c1ccc(F)cc1 (as salt: salt)

>  <melting point>
213 to 214 °C

$$$$
